System: Vibrio cholerae
protocol: Inhibition of Vibrio cholerae recombinant MARTX toxin (3391-3650) cysteine protease domain autoprocessing assessed as concentration of InsP6 required to activate half maximal cleavage of the enzyme at 10 uM by Coomassie staining based SDS-PAGE method
# note: boundary value 70 nM maps to not satisfied; Activity below it maps to satisfied

*Q* Please check: Activity for Cc1cccc(C)c1C(=O)OCC(=O)[C@H](CC(C)C)NC(=O)[C@H](C)NC(=O)[C@H](CCC(=O)O)NC(=O)[C@H](CCCCN)NC(=O)OCc1ccccc1 , strictly under 70 nM or not?
*A* not satisfied

*Q* Please check: Activity for CCOC(=O)[C@H]1O[C@@H]1C(=O)N(CC(C)C)NC(=O)[C@H](CC(C)C)NC(=O)OCc1ccccc1 , strictly under 70 nM or not?
*A* satisfied

*Q* Please check: Activity for CCOC(=O)[C@H]1O[C@@H]1C(=O)N(CC(C)C)NC(=O)[C@H](CC(C)C)NC(=O)[C@H](CC(C)C)NC(=O)OCc1ccccc1 (stereo in doubt; 9) , strictly under 70 nM or not?
*A* not satisfied

*Q* Please check: Activity for CCOC(=O)[C@H]1O[C@@H]1C(=O)N(CC(C)C)NC(=O)[C@H](CC(C)C)NC(=O)[C@H](CC(C)C)NC(=O)OCc1ccccc1 (stereo in doubt; 7) , strictly under 70 nM or not?
*A* not satisfied

*Q* Please check: Activity for CC(C)C[C@H](NC(=O)OCc1ccccc1)C(=O)N[C@@H](CC(C)C)C(=O)NN(CC(C)C)C(=O)[C@H]1O[C@@H]1C(=O)O , strictly under 70 nM or not?
*A* not satisfied

*Q* Please check: Activity for Cc1cccc(C)c1C(=O)OCC(=O)[C@H](CC(C)C)NC(=O)[C@H](C)NC(=O)OCc1ccccc1 , strictly under 70 nM or not?
*A* not satisfied

*Q* Please check: Activity for CCOC(=O)[C@@H]1O[C@H]1C(=O)N(CC(C)C)NC(=O)OCc1ccccc1 (relative stereo) , strictly under 70 nM or not?
*A* satisfied

*Q* Please check: Activity for Cc1cccc(C)c1C(=O)OCC(=O)[C@H](CC(C)C)NC(=O)[C@H](C)NC(=O)[C@H](CCC(=O)O)NC(=O)OCc1ccccc1 , strictly under 70 nM or not?
*A* not satisfied

*Q* Please check: Activity for CCOC(=O)[C@@H]1O[C@H]1C(=O)N(CC(C)C)NC(=O)[C@H](CC(C)C)NC(=O)[C@H](CC(C)C)NC(=O)OCc1ccccc1 , strictly under 70 nM or not?
*A* satisfied

*Q* Please check: Activity for CCOC(=O)[C@H]1O[C@@H]1C(=O)N(CC(C)C)NC(=O)[C@H](CC(C)C)NC(C)=O , strictly under 70 nM or not?
*A* satisfied
